# maps each entry to its logP

| compound | logP |
| --- | --- |
| CNC(=O)C1(O)C(C)CC2C3CCC4=CC(=O)C=CC4(C)C3(F)C(O)CC21C (configuration not stated) | 1.54 |
| CNC(=O)C=C(C)OP(=O)(OC)OC | -0.2 |
| CCCCNC(=O)c1n[nH]c(C)c1[N+](=O)[O-] | 1.27 |
| CCCCCCOc1ccc(NC(=O)OCCN2CCOCC2)cc1 | 4.51 |
| NC(=O)c1cc(-c2ccccc2)nnc1NCCN1CCOCC1 | 1.86 |
| Clc1cc2c(cc1Cl)Oc1c(Cl)ccc(Cl)c1O2 | 6.39 |
| CCCN1C(=O)C(=O)c2ccccc2C1=O | 1.6 |
| Clc1ccc(Cl)c(-c2cccc(Cl)c2Cl)c1 | 5.81 |
| Cc1ccc2c(=O)[nH]c(=O)[nH]c2c1 | 0.55 |
| COc1cccc(OCc2ccccc2CCCN2CCC(O)CC2)c1 | 3.35 |
| OCC1CC(F)C(n2cnc3c(Br)ncnc32)O1 (configuration not stated) | 0.44 |
| CC1COC(Cn2cncn2)(c2ccc(Oc3ccc(Cl)cc3)cc2Cl)O1 (configuration not stated) | 4.3 |
